assay: Henry solubility constant Hcp at 298.15 K (mol/(m3 Pa)); details: reference: Fenclová et al. (2014)
Binary call on Henry solubility constant Hcp: TRUE from 0.04 upward, FALSE beneath that.

CCCC(=O)OCC [ethyl butanoate]	FALSE
CCOC(C)=O [ethyl ethanoate]	TRUE

Query :: Check if Henry solubility constant Hcp >= 0.04 (inclusive). Item: CCCCOC(C)=O [butyl ethanoate]
Result :: FALSE

Query :: // query: COC(C)=O [methyl ethanoate]
Result :: TRUE

Query :: Next record, please: CCCOC(C)=O [propyl ethanoate]
Result :: TRUE

* * *

experiment: Henry solubility constant Hcp at 298.15 K (mol/(m3 Pa)); settings: reference: Buttery et al. (1965)
// class 0 strictly below 0.07 in Henry solubility constant Hcp; class 1 otherwise

Solved cases (4 shown):
CCCCC=O [pentanal]	class 0
CCCCCCC=O [heptanal]	class 0
CCCC=O [butanal]	class 0
CCCCCCCCCC=O [decanal]	class 1

Query :: Could you tell me if the measured Henry solubility constant Hcp of CCCCCCCC=O [octanal] reaches 0.07 or more?
Result :: class 1

* * *

assay: Henry solubility constant Hcp at 298.15 K (mol/(m3 Pa)); conditions: reference: Fichan et al. (1999)
# Henry solubility constant Hcp listing for each entry below
I only need the number, thanks.

Examples from the recorded data:
CC1(C)[C@H]2CC[C@](C)(C2)[C@H]1O [(1R)-1,3,3-trimethylbicyclo[2.2.1]heptan-2-ol]	0.36
C=C(C)C1CCC2(C)OC2C1 (stereo unspecified) [limonene oxide]	0.056
C=CC(=C)CCC=C(C)C [7-methyl-3-methylene-1,6-octadiene]	0.00087
C=C(C)C1CC=C(C)CC1 (stereo unspecified) [1-methyl-4-(1-methylethenyl)-cyclohexene]	0.0007
CC(=O)/C=C/C1=C(C)CCCC1(C)C [β-ionone]	1.2

// next entry
Query :: Which Henry solubility constant Hcp value is on record for CC1(C)C2CC3OC3(C)C1C2 (stereo unspecified) [2,7,7-trimethyl-3-oxatricyclo[4.1.1.0(2,4)]octane] ?
Result :: 0.023

* * *

The molecules listed here are annotated with their Henry solubility constant Hcp.
experiment: Henry solubility constant Hcp at 298.15 K (mol/(m3 Pa)); conditions: reference: Pollien et al. (2003)

Here is how some molecules turned out for Henry solubility constant Hcp.
CSC [dimethyl sulfide]	0.0049
CCC(C)C=O (centres undefined)	0.023
CC(C)CC=O	0.026

Query :: What value of Henry solubility constant Hcp has been reported for the following molecule? CCOC(=O)C(C)CC (centres undefined) [ethyl 2-methylbutanoate]
Result :: 0.0089

* * *

assay: Henry solubility constant Hcp at 298.15 K (mol/(m3 Pa)); conditions: reference: Arp and Schmidt (2004)
attributeMeasured: Henry solubility constant Hcp
Number only, please.

Query :: Entry "CCOC(C)(C)C" has what Henry solubility constant Hcp?
Result :: 0.0061

Query :: Next molecule up: "CCC(C)(C)OC"
Result :: 0.0086

Query :: What do we get for "CC(C)OC(C)C" ?
Result :: 0.0039

Query :: Lookup COC(C)=O [methyl ethanoate]
Result :: 0.066

Query :: Another molecule to check: CC(C)(C)OC=O [(1,1-dimethylethyl)-methanoate]
Result :: 0.014

Cited source: Sander's compilation of Henry's law constants
